This section presents compounds with their documented melting point values.
Metric: melting point (°C)

INSERT INTO assay_data (compound, observed_result) VALUES
  ('Oc1ccc(C2Oc3c(ccc(O)c3O)CC2O)cc1O (single isomer, unassigned; (-)) [Compound 1, (−)-mesquitol]', 252),
  ('O=C(OC1Cc2ccc(O)c(O)c2OC1c1ccc(O)c(O)c1)c1ccccc1 (single isomer, unassigned; (-)) [Compound 4h, (−)-3-O-benzoyl mesquitol]', 248),
  ('CCCCCC(=O)OC1Cc2ccc(O)c(O)c2OC1c1ccc(O)c(O)c1 (single isomer, unassigned; (-)) [Compound 4c, (−)-3-O-hexanoyl mesquitol]', 81),
  ('CCCC(=O)OC1Cc2ccc(O)c(O)c2OC1c1ccc(O)c(O)c1 (single isomer, unassigned; (-)) [Compound 4b, (−)-3-O-butyryl mesquitol]', 80),
  ('CC(=O)OC1Cc2ccc(O)c(O)c2OC1c1ccc(O)c(O)c1 (single isomer, unassigned; (-)) [Compound 4a, (−)-3-O-acetyl mesquitol]', 78);

* * *

- Assayed target: yeast α-glucosidase
- Assay comment: α-glucosidase inhibitory assay by the chromogenic method
- Type: biochemical
- Study conditions: yeast α-glucosidase [Sigma], substrate p-nitrophenyl-α-D-glucopyranoside, pH 7.00, absorbance at 405 nm
So basically: is IC50 under 50 µM? Then Criterion met. Not under? Then Criterion not met.

INSERT INTO assay_data (compound, label_class) VALUES
  ('COc1ccc(C(=O)OC2Cc3ccc(O)c(O)c3OC2c2ccc(O)c(O)c2)cc1 (single isomer, unassigned; (-)) [Compound 4j, (−)-3-O-(p-methoxybenzoyl) mesquitol]', 'Criterion not met'),
  ('CCCCCCCCCCCCCCCCCC(=O)OC1Cc2ccc(O)c(O)c2OC1c1ccc(O)c(O)c1 (single isomer, unassigned; (-)) [Compound 4g, (−)-3-O-Steroyl mesquitol]', 'Criterion not met'),
  ('CCCCCCCCCCCCCCCC(=O)OC1Cc2ccc(O)c(O)c2OC1c1ccc(O)c(O)c1 (single isomer, unassigned; (-)) [Compound 4f, (−)-3-O-Palmitoyl mesquitol]', 'Criterion met'),
  ('Oc1ccc(C2Oc3c(ccc(O)c3O)CC2O)cc1O (single isomer, unassigned; (-)) [Compound 1, (−)-mesquitol]', 'Criterion not met'),
  ('O=C(O[C@H]1Cc2ccc(O)c(O)c2O[C@@H]1c1ccc(O)c(O)c1)c1ccc(F)cc1 [Compound 4k, (−)-3-O-(p-flourobenzoyl) mesquitol]', 'Criterion met'),
  ('CCCC(=O)OC1Cc2ccc(O)c(O)c2OC1c1ccc(O)c(O)c1 (single isomer, unassigned; (-)) [Compound 4b, (−)-3-O-butyryl mesquitol]', 'Criterion met'),
  ('O=C(OC1Cc2ccc(O)c(O)c2OC1c1ccc(O)c(O)c1)c1ccccc1 (single isomer, unassigned; (-)) [Compound 4h, (−)-3-O-benzoyl mesquitol]', 'Criterion not met');

* * *

- Assayed target: yeast α-glucosidase
- Assay comment: α-glucosidase inhibitory assay by the chromogenic method
- Format: biochemical
- Study conditions: yeast α-glucosidase [Sigma], substrate p-nitrophenyl-α-D-glucopyranoside, pH 7.00, absorbance at 405 nm
So basically: is IC50 under 40 µM? Then Y. Not under? Then N.

INSERT INTO assay_data (molecule, assayed_target, label_class) VALUES
  ('CCCCCCCCCCCCCC(=O)OC1Cc2ccc(O)c(O)c2OC1c1ccc(O)c(O)c1 (single isomer, unassigned; (-)) [Compound 4e, (−)-3-O-myristoyl mesquitol]', 'yeast α-glucosidase', 'Y'),
  ('O=C(OC1Cc2ccc(O)c(O)c2OC1c1ccc(O)c(O)c1)c1ccccc1Cl (single isomer, unassigned; (-)) [Compound 4I, (−)-3-O-(o-chlorobenzoyl) mesquitol]', 'yeast α-glucosidase', 'N'),
  ('CC(=O)OC1Cc2ccc(O)c(O)c2OC1c1ccc(O)c(O)c1 (single isomer, unassigned; (-)) [Compound 4a, (−)-3-O-acetyl mesquitol]', 'yeast α-glucosidase', 'N'),
  ('CCCCCC(=O)OC1Cc2ccc(O)c(O)c2OC1c1ccc(O)c(O)c1 (single isomer, unassigned; (-)) [Compound 4c, (−)-3-O-hexanoyl mesquitol]', 'yeast α-glucosidase', 'N'),
  ('CCCCCCCCCC(=O)O[C@H]1Cc2ccc(O)c(O)c2O[C@@H]1c1ccc(O)c(O)c1 [Compound 4d, (−)-3-O-Decanoyl mesquitol]', 'yeast α-glucosidase', 'Y');

Source listed as patent US7071341B2.
